test system: OVCAR-4 ovarian; experiment: NCI-60 one-dose screen, 48 h (100 = growth as untreated, 0 = no growth, -100 = all killed); conditions: 10 µM unless noted
About 83,000 compounds went through this panel and 20% of them were active in at least one assay; those are over-represented in the sample as a whole. The source made the active and inactive calls. How the source made its calls: active means growth percent below 10; inactive means the rest.
Outcome measure: growth

For orientation, consider the following solved cases.
• COc1ccc(-c2nc3cc(Cl)c(Cl)cc3n2CC(=O)N=Nc2c(O)[nH]c3ccc(OC)cc23)cc1 = 40.4% (inactive)
• C=CC(=O)N1CCC=C(c2cc3c(N[C@H](C)c4ccccc4)ncnc3[nH]2)C1 = 45.4% (inactive)
• CC(O)c1cc2ccccc2c(=O)o1 (configuration not stated) = 100% (inactive)
• CCO/C=N/C1=C(C#N)C(c2ccc(Cl)cc2)c2sc3c(CC)cccc3c2O1 (configuration not stated) = 76.5% (inactive)
• N#Cc1cccc(CN2CCc3ncn(Cc4ccc(Cl)cc4)c(=O)c3C2)c1 = 16.5% (inactive)
• CCOC(=O)C(=O)/C(=C\c1ccc(Cl)cc1)C(=O)N1C(=S)NC(=O)C1CC(C)C (configuration not stated) = 98.2% (inactive)

Now for a further molecule.
## Task Identify measured growth corresponding to "O=S(=O)(Nc1cccc2ccccc12)c1ccc(-c2cnc(C3CC3)o2)cc1"
## Result 64.1% (inactive)
